test system: Escherichia coli; assay: Antibacterial activity against Escherichia coli ATCC 20732 after 24 to 48 hrs by macro-broth dilution method; assay type: functional
Attribute: MIC

- structure-smiles: "CS(=O)(=O)c1nc2cc(OCc3ccc(Cl)cc3)ccc2s1"
  MIC, µg/mL: 20
- structure-smiles: "CCOc1ccc2sc(S(C)(=O)=O)nc2c1S(=O)(=O)NC(CC)CC"
  MIC, µg/mL: 50
- structure-smiles: "CCOc1ccc2sc(S(C)(=O)=O)nc2c1S(=O)(=O)Nc1ccc([N+](=O)[O-])cc1"
  MIC, µg/mL: 20
- structure-smiles: "CCOc1ccc2sc(S(C)(=O)=O)nc2c1S(=O)(=O)NC(C)(C)C"
  MIC, µg/mL: 20

----------
system: Escherichia coli; test: Antibacterial activity against Escherichia coli ATCC 35421 assessed as zone of inhibition at 1 mg/ml by agar well diffusion method; assay type: functional; conditions: read-out: DIZ
Attribute: zone of inhibition at 1000 µg/mL

- structure-smiles: "CCOc1ccc2sc(S(C)(=O)=O)nc2c1S(=O)(=O)NC(C)(C)C"
  output-unit: "mm"
  result-qualifier: "="
  zone of inhibition at 1000 µg/mL: 9
- structure-smiles: "CS(=O)(=O)c1nc2cc(OCc3ccc(Cl)cc3)ccc2s1"
  output-unit: "mm"
  result-qualifier: "="
  zone of inhibition at 1000 µg/mL: 9
- structure-smiles: "CCOc1ccc2sc(S(C)(=O)=O)nc2c1S(=O)(=O)Nc1ccc(Br)cc1"
  output-unit: "mm"
  result-qualifier: "="
  zone of inhibition at 1000 µg/mL: 9
- structure-smiles: "CCOc1ccc2sc(S(C)(=O)=O)nc2c1[N+](=O)[O-]"
  output-unit: "mm"
  result-qualifier: "≤"
  zone of inhibition at 1000 µg/mL: 7
- structure-smiles: "CCNS(=O)(=O)c1c(OCC)ccc2sc(S(C)(=O)=O)nc12"
  output-unit: "mm"
  result-qualifier: "≤"
  zone of inhibition at 1000 µg/mL: 7

----------
test system: Staphylococcus aureus; assay: Antibacterial activity against Staphylococcus aureus 209P assessed as zone of inhibition at 1 mg/ml by agar well diffusion method; format: functional; details: read-out: DIZ
Attribute: zone of inhibition at 1000 µg/mL

- structure-smiles: "CCOc1ccc2sc(S(C)(=O)=O)nc2c1NC(=O)CNCN1CCCC1"
  assayed-target: "Staphylococcus aureus"
  zone of inhibition at 1000 µg/mL: "≤ 7 mm"
- structure-smiles: "CCOc1ccc2sc(S(C)(=O)=O)nc2c1NC(=O)CCl"
  assayed-target: "Staphylococcus aureus"
  zone of inhibition at 1000 µg/mL: "≤ 7 mm"
- structure-smiles: "CCOc1ccc2sc(S(C)(=O)=O)nc2c1NC(=O)CN1CCOCC1"
  assayed-target: "Staphylococcus aureus"
  zone of inhibition at 1000 µg/mL: "9 mm"
- structure-smiles: "CCOc1ccc2sc(S(C)(=O)=O)nc2c1S(=O)(=O)Cl"
  assayed-target: "Staphylococcus aureus"
  zone of inhibition at 1000 µg/mL: "≤ 7 mm"
- structure-smiles: "CS(=O)(=O)c1nc2cc(OCc3ccc(Cl)cc3)ccc2s1"
  assayed-target: "Staphylococcus aureus"
  zone of inhibition at 1000 µg/mL: "13 mm"
- structure-smiles: "CS(=O)(=O)c1nc2cc(O)ccc2s1"
  assayed-target: "Staphylococcus aureus"
  zone of inhibition at 1000 µg/mL: "≤ 7 mm"
- structure-smiles: "CCOc1ccc2sc(S(C)(=O)=O)nc2c1NC(=O)CNCN1CCN(C(=O)OC(C)(C)C)CC1"
  assayed-target: "Staphylococcus aureus"
  zone of inhibition at 1000 µg/mL: "≤ 7 mm"
- structure-smiles: "CCOc1ccc2sc(S(C)(=O)=O)nc2c1S(=O)(=O)Nc1ccc(Cl)c(Cl)c1"
  assayed-target: "Staphylococcus aureus"
  zone of inhibition at 1000 µg/mL: "≤ 7 mm"
- structure-smiles: "CCOc1ccc2sc(S(C)(=O)=O)nc2c1NC(=O)CNC(C)C"
  assayed-target: "Staphylococcus aureus"
  zone of inhibition at 1000 µg/mL: "≤ 7 mm"
- structure-smiles: "CCOc1ccc2sc(S(C)(=O)=O)nc2c1[N+](=O)[O-]"
  assayed-target: "Staphylococcus aureus"
  zone of inhibition at 1000 µg/mL: "≤ 7 mm"
- structure-smiles: "CCOc1ccc2sc(S(C)(=O)=O)nc2c1S(=O)(=O)Nc1ccc([N+](=O)[O-])cc1"
  assayed-target: "Staphylococcus aureus"
  zone of inhibition at 1000 µg/mL: "14 mm"
- structure-smiles: "CCOc1ccc2sc(S(C)(=O)=O)nc2c1S(=O)(=O)Nc1ccc(Br)cc1"
  assayed-target: "Staphylococcus aureus"
  zone of inhibition at 1000 µg/mL: "9 mm"
- structure-smiles: "CCOc1ccc2sc(S(C)(=O)=O)nc2c1S(=O)(=O)NC1CC1"
  assayed-target: "Staphylococcus aureus"
  zone of inhibition at 1000 µg/mL: "≤ 7 mm"
- structure-smiles: "CS(=O)(=O)c1nc2cc(OCc3ccccc3)ccc2s1"
  assayed-target: "Staphylococcus aureus"
  zone of inhibition at 1000 µg/mL: "8 mm"
- structure-smiles: "CCOc1ccc2sc(S(C)(=O)=O)nc2c1"
  assayed-target: "Staphylococcus aureus"
  zone of inhibition at 1000 µg/mL: "≤ 7 mm"
- structure-smiles: "CS(=O)(=O)c1nc2cc(OCc3ccc(-c4ccccc4)cc3)ccc2s1"
  assayed-target: "Staphylococcus aureus"
  zone of inhibition at 1000 µg/mL: "≤ 7 mm"
- structure-smiles: "CS(=O)(=O)c1nc2cc(OCc3ccc(OCc4ccccc4)cc3)ccc2s1"
  assayed-target: "Staphylococcus aureus"
  zone of inhibition at 1000 µg/mL: "≤ 7 mm"
- structure-smiles: "CCOc1ccc2sc(S(C)(=O)=O)nc2c1S(=O)(=O)NC"
  assayed-target: "Staphylococcus aureus"
  zone of inhibition at 1000 µg/mL: "≤ 7 mm"
- structure-smiles: "CCOc1ccc2sc(Cl)nc2c1"
  assayed-target: "Staphylococcus aureus"
  zone of inhibition at 1000 µg/mL: "≤ 7 mm"
- structure-smiles: "CCOc1ccc2sc(S(C)(=O)=O)nc2c1S(=O)(=O)NC(C)(C)C"
  assayed-target: "Staphylococcus aureus"
  zone of inhibition at 1000 µg/mL: "≤ 7 mm"
- structure-smiles: "CCOc1ccc2sc(S(C)(=O)=O)nc2c1S(=O)(=O)NC(C)C"
  assayed-target: "Staphylococcus aureus"
  zone of inhibition at 1000 µg/mL: "≤ 7 mm"
- structure-smiles: "CCOc1ccc2sc(S(C)(=O)=O)nc2c1S(=O)(=O)N1CCO[C@H](COc2ccccc2)C1"
  assayed-target: "Staphylococcus aureus"
  zone of inhibition at 1000 µg/mL: "≤ 7 mm"
- structure-smiles: "CCOc1ccc2sc(S(C)(=O)=O)nc2c1S(=O)(=O)NC(CC)CC"
  assayed-target: "Staphylococcus aureus"
  zone of inhibition at 1000 µg/mL: "13 mm"

----------
tested on: Candida albicans; experiment: Antifungal activity against Candida albicans A01 assessed as zone of inhibition at 5 mg/ml by agar well diffusion method; assay type: functional; settings: read-out: DIZ

- structure-smiles: "CCOc1ccc2sc(S(C)(=O)=O)nc2c1N"
  zone of inhibition at 5000 µg/mL: "19 mm"
- structure-smiles: "CS(=O)(=O)c1nc2cc(OCc3ccc(OCc4ccccc4)cc3)ccc2s1"
  zone of inhibition at 5000 µg/mL: "≤ 7 mm"
- structure-smiles: "CCOc1ccc2sc(S(C)(=O)=O)nc2c1NC(=O)CNCN1CCCC1"
  zone of inhibition at 5000 µg/mL: "≤ 7 mm"
- structure-smiles: "CCOc1ccc2sc(S(C)(=O)=O)nc2c1[N+](=O)[O-]"
  zone of inhibition at 5000 µg/mL: "≤ 7 mm"
- structure-smiles: "CS(=O)(=O)c1nc2cc(OCc3ccc(Cl)cc3)ccc2s1"
  zone of inhibition at 5000 µg/mL: "16 mm"
- structure-smiles: "CS(=O)(=O)c1nc2cc(OCc3ccc(-c4ccccc4)cc3)ccc2s1"
  zone of inhibition at 5000 µg/mL: "≤ 7 mm"
- structure-smiles: "CCOc1ccc2sc(S(C)(=O)=O)nc2c1NC(=O)CN1CCOCC1"
  zone of inhibition at 5000 µg/mL: "≤ 7 mm"
- structure-smiles: "CCOc1ccc2sc(S(C)(=O)=O)nc2c1S(=O)(=O)NC"
  zone of inhibition at 5000 µg/mL: "≤ 7 mm"
- structure-smiles: "CCCNS(=O)(=O)c1c(OCC)ccc2sc(S(C)(=O)=O)nc12"
  zone of inhibition at 5000 µg/mL: "≤ 7 mm"
- structure-smiles: "CCOc1ccc2sc(S(C)(=O)=O)nc2c1NC(=O)CNCN1CCN(C(=O)OC(C)(C)C)CC1"
  zone of inhibition at 5000 µg/mL: "≤ 7 mm"
- structure-smiles: "CCOc1ccc2sc(S(C)(=O)=O)nc2c1S(=O)(=O)NC(C)C"
  zone of inhibition at 5000 µg/mL: "≤ 7 mm"
